System: Veronica
Assay: Pre-emergence test/greenhouse
Format: in vivo
Conditions: 504 h, 125 g of a.i./ha, after three weeks, read-out: degree of damage, Veronica
Experimental: To produce a suitable preparation of active compound, 1 part by weight of active compound is mixed with the stated amount of solvent, the stated amount of emulsifier is added and the concentrate is diluted with water to the desired concentration. Seeds of the test plants are sown in normal soil. After about 24 hours, the soil is sprayed with the preparation of active compound such that the particular amount of active compound desired is applied per unit area. […]
RECORDED_METRIC: pest or weed control at 125 g/ha (%)
Answers are plain numbers, in %.

// below: answered compounds
molecule_smiles=CC(C)Oc1nn(C(=O)NS(=O)(=O)/N=c2/sccn2CCCF)c(=O)n1C reading=100
molecule_smiles=CCCn1ccs/c1=N\S(=O)(=O)NC(=O)n1nc(OC(C)C)n(C2CC2)c1=O reading=95
molecule_smiles=CCCn1ccs/c1=N\S(=O)(=O)NC(=O)n1nc(OCC)n(C2CC2)c1=O reading=100

Need pest or weed control at 125 g/ha for each of these compounds.
1. CCCn1ccs/c1=N\S(=O)(=O)NC(=O)n1nc(OC)n(C2CC2)c1=O
2. CC(C)Oc1nn(C(=O)NS(=O)(=O)/N=c2\sccn2CCCF)c(=O)n1C1CC1
3. C/C=C/c1nn(C(=O)NS(=O)(=O)/N=c2\sccn2CCC)c(=O)n1C1CC1
4. COc1nn(C(=O)NS(=O)(=O)/N=c2\sccn2CCCF)c(=O)n1C
5. CCOc1nn(C(=O)NS(=O)(=O)/N=c2\sccn2CCCF)c(=O)n1C1CC1

[100, 95, 100, 95, 100]
